Biological target: MurA (UDP-N-acetylglucosamine 1-carboxyvinyltransferase) (Enterobacter cloacae)
Sequence (P33038 whole entry): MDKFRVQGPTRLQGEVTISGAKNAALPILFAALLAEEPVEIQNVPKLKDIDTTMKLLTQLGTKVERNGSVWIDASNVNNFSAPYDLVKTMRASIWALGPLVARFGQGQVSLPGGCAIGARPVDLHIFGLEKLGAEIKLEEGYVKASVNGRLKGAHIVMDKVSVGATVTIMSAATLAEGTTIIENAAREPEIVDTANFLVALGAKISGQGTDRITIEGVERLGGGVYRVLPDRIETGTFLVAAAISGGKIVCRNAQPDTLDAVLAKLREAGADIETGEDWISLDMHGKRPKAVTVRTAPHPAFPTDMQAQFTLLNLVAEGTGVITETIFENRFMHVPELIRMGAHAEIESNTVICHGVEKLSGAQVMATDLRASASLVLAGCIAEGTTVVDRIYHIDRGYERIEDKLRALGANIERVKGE
Experiment: crystal structure at […] Å
Type: biochemical
measure name: IC50 (µM)
Numeric only. Scale: µM

Prompt: Look at this molecule and give its reported IC50. CC1=C(O)C(=O)[C@@H]2O[C@@H]2C1=O [terreic acid]
Response: 14

====

Target: MurA (UDP-N-acetylglucosamine 1-carboxyvinyltransferase) (Enterobacter cloacae)
Assay: crystal structure at […] Å
Type: biochemical
measure name: IC50 (nM)
Numeric only. Scale: nM

Prompt: Look at this compound and give its reported IC50. C[C@@H]1O[C@@H]1P(=O)(O)O
Response: 250
